assay.method.text: Human HepG2 cell viability assay in 384 well format
Format: toxicity, cell-based
Set-up: dose 125 nL, time 70.5 hour; concentration not given beside the values
experimental.conditions: HepG2 cells, read-out: Inhibition
attribute.measured: cytotoxicity at 70.5 h (%)
API: value field is a number in %; no unit string.

Guide cases for cytotoxicity at 70.5 h, answers given:
molecule	attribute.measured	result.unit	measured.number
CN(CC(O)COc1ccc(C(F)(F)F)cc1)C(=O)Nc1nncs1 (configuration not stated)	cytotoxicity at 70.5 h	%	19.7
CC(C)n1cnnc1CN(C)C(=O)c1ccc[nH]1	cytotoxicity at 70.5 h	%	18.8
CCc1ncc(C(=O)N2CC[C@@H]3CC[C@H](C2)N3C)cn1	cytotoxicity at 70.5 h	%	-14
CCN(C(=O)CCn1cccn1)C1CC1	cytotoxicity at 70.5 h	%	-5.79

With those in mind, consider the next molecule.
QUERY: Entry under review: "Cc1cnc(C)c(N2CC[C@H](N3CCOCC3)[C@H](CCCO)C2)n1" . Reported cytotoxicity at 70.5 h?
RESULT: -9.88
